Experiment: NCI Yeast Anticancer Drug Screen. Data for the mlh1 rad18 strain (AID 175)
Details: S. cerevisiae mlh1 rad18 strain growth inhibition; at 50.0 µM (retest, dose inferred, filed as 5.0)
The panel holds about 79,000 compounds, 15% with a hit somewhere; the sample as a whole holds those more often. Calls of active or inactive are those of the source. Cut-off read from the data, not from the text of the source: active = growth inhibition above about 70%; inactive = the rest.
Result category, one only: Y = active, N = inactive

C=CC[C@]1(C(C)C(OC(C)=O)c2ccc3c(c2)OCO3)C[C@@H](OC)C=CC1=O (stereo partly drawn) = Y
Nc1nccc(NCCCCCCNc2ccnc(N)n2)n1 = N
CCCCCCCCC1CCNCC1 = N
C[N+](C)=c1ccc2nc3c(cc(NCCCNc4cc5oc6cc(=[N+](C)C)ccc-6nc5c5ccccc45)c4ccccc43)oc-2c1 = Y
ClC1=C(Cl)C2c3ccccc3C1c1ccccc12 = Y

## Input Could you kindly confirm the outcome this assay logged for CC1C(c2ccc3c(c2)OCO3)c2cc3c(cc2OC1N1CCOCC1)OCO3 (stereo not drawn) ?
## Output N

## Input CCCCOP(=O)(OCCCC)C(NS(=O)(=O)c1ccccc1)(C(=O)OCC)C(F)(F)F (stereo not drawn) ?
## Output Y

## Input Another molecule to look at: CC1CCC(C(C)C2C(O)CC3C4CC=C5CC(O)CCC5(C)C4CCC32C)NC1 (stereo not drawn)
## Output N

## Input Could you do the same for C=C1C(=O)OC2C1CC1OC2C(C)CCC/C(C)=C\CCC1(C)O (stereo not drawn) , please?
## Output N

## Input Also `CCOc1c(Br)cc(Br)cc1/C=N/NS(=O)(=O)c1ccc(C)cc1` , if possible.
## Output Y

## Input Could you do the same for `COc1ccc2c(c1)CCC1=C2C=C[P+]1(C)C` , please?
## Output Y

## Input Another molecule to check: `Oc1ccc2ccc3ccccc3c2c1`
## Output Y

* * *

Assay: NCI Yeast Anticancer Drug Screen. Data for the sgs1 mgt1 strain (AID 161);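 note: 0% = growth of cultures given vehicle only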
Conditions: S. cerevisiae sgs1 mgt1 strain, at 50.0 µM (retest, dose inferred, filed as 5.0)
This is part of a sample that, as a whole, favours compounds with a hit. Of some 79,000 tested, about 15% had one in any assay. Calls of active or inactive are those of the source. Cut-off read from the data, not from the text of the source: active = growth inhibition above about 70%; inactive = the rest.
Mark one answer only. Choices: YES for active, NO for inactive

CC(C)=Cc1cc2c(cc1O)CCC1C2CC[C@@]2(C)C1CC[C@@H]2O (some centres not stated) = NO
O=C(C(Oc1ccc(Cl)cc1)Oc1ccc(Cl)cc1)N(O)c1ccccc1OCc1ccccc1 = NO
COc1ccc(Cc2ccc(N)cc2)cc1 = YES
c1cc[c]([Sn]([S]c2cccc3cccnc23)([S]c2cccc3cccnc23)[c]2ccccc2)cc1 = YES
C=C(CCC(C)C1CCC2(C)C3=C(CC(O)C12C)C1(C)CCC(O)C(C)(C)C1CC3)C(C)C(=O)O (configuration not stated) = YES
CC(=O)OC1(C)C(=C(Cl)Cl)C2c3ccccc3C1c1ccccc12 (configuration not stated) = YES
COc1ccccc1/C=C\C(=O)c1ccccc1 = YES
CC(C)(C)c1ccc(OC(=O)Nc2ccc(Cl)cc2[N+](=O)[O-])c(Br)c1 = NO
CCCCCCn1c(SCC)c2ccccc2c1-c1nc(F)nc(F)n1 = NO
CC/C(=N\NS(=O)(=O)c1ccc(C)cc1)c1cccc(OC)c1 = YES

## Input Record lookup: outcome of this test for `CC(C)c1ccc2nc3ccc(C(=O)NCCN4CCN(c5ccccc5)CC4)cn3c(=O)c2c1` ?
## Output YES

## Input Try `Cc1cc(Br)c(N2C3=C(CC4=C2CCCC4=O)C(=O)CCC3)c(Br)c1` next.
## Output YES

## Input // repeat for `Clc1ccc(-c2nc3ccc(Cl)cc3[nH]2)cc1` and report
## Output YES

## Input And then CCCCCC(CO)C(O)(C(F)(F)F)C(F)(F)F (configuration not stated) , what is it?
## Output NO

* * *

Test: NCI Yeast Anticancer Drug Screen. Data for the cln2 rad14 strain (AID 165);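 note: 0% = growth equal to vehicle treated cultures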
Conditions: S. cerevisiae cln2 rad14 strain, at 50.0 µM
This is part of a sample that, as a whole, favours compounds with a hit. Of some 79,000 tested, about 15% had one in any assay. Active and inactive are the calls of the source. Rule as the data show it: active = growth inhibition above about 70%; inactive = the rest.
Write down the outcome that applies. Available outcomes: active, inactive

These recorded examples may help you get a feel for the data.
CC(=O)N=C1N(/C=C2\C(=O)Oc3ccccc3C2=O)C(=O)/C(=C/c2ccco2)N1C = active
O=C(Nc1ccccc1)c1ccc(Cl)cc1Cl = inactive
CC(C)(C)c1cc(C(O)(C(F)(F)F)C(F)(F)F)c(S)c(C(O)(C(F)(F)F)C(F)(F)F)c1 = active

## Input Could you please tell me the result logged for `C/C(=N\NC(=S)N(C)CCN(C)C(=S)N/N=C(\C)c1ccccn1)c1ccccn1` in this assay?
## Output active

## Input Try the molecule `Cn1cc(/C=C/[N+](=O)[O-])c2ccc(OCc3ccccc3)cc21`
## Output inactive

## Input // repeat for `CCCCSc1n[nH]c(=O)nc1SC` and report
## Output active

## Input Input `c1ccc2c(c1)[nH]c1cc3ccncc3cc12`
## Output inactive

## Input Query `COc1ccc2nc3cc(Cl)ccc3c(Nc3ccc(O)c(CNCCO)c3)c2c1` next
## Output inactive

## Input For OC1C2COc3nc4ccccc4n3C(O2)C1O (stereo unspecified) then?
## Output inactive

## Input Now the same for COc1ccc(CC[N+]2(C)COc3cc4oc(=O)cc(C)c4cc3C2)cc1OC (stereo unspecified)
## Output inactive

## Input What do you have for `NC(=O)NN=C1CSSC1` ?
## Output inactive

* * *

Test: NCI Yeast Anticancer Drug Screen. Data for the mec2-1 strain (AID 157)
Details: S. cerevisiae mec2-1 strain, at 50.0 µM (retest, dose inferred, filed as 5.0), hits give high values
This is part of a sample that, as a whole, favours compounds with a hit. Of some 79,000 tested, about 15% had one in any assay.
Consider the following compounds; for each one, report its growth inhibition.
Answers are plain numbers, in %.

Sample answers from the record:
COC(=O)C(C#N)=C(SC)SC = 99
CCCCCCC(=O)CC(SCCN)c1ccccc1Cl (stereo not drawn) = 56
C[N+](C)=c1ccc2nc3c(cc(NCCCNc4cc5oc6cc(=[N+](C)C)ccc-6nc5c5ccccc45)c4ccccc43)oc-2c1 = 80

Provide growth inhibition for all items below, preserving their order.
1. COc1ccc(C(=O)Oc2c(Br)cc(Br)cc2Br)cc1
2. CCCCC(=O)N/N=C/c1ccc([N+](=O)[O-])s1
3. [Cl][Pt+2]([Cl])([Cl])[Cl].[NH-]CC1(C[NH-])CCCC1
4. C=C(C)C(=O)OC1CC2=CC(CC3(C)OC3C3OC(=O)C(=C)C13)OC2=O (stereo not drawn)
5. S=C(N/N=C(/c1ccccc1)c1ccccn1)Nc1cccc(Cl)c1
6. O=[N+]([O-])c1ccc(NCc2ccccc2)c([N+](=O)[O-])c1
7. CCOc1cc(/C=N/NC(=S)NC23CC4CC(CC(C4)C2)C3)ccc1O
8. CCCCCCC(C)OC(=O)/C=C/c1ccccc1 (stereo not drawn)

## Output
[-3, 94, 99, 37, 91, 55, 30, 1]

Hi, could you look up growth inhibition for each item in my list?
1. Nc1ccccc1OCC(O)CN1CCN(Cc2ccccc2)CC1 (stereo not drawn)
2. Brc1ccc(C2SCc3nc4ccccc4n32)cc1 (stereo not drawn)
3. Nc1ccc2ccccc2c1Cc1c(O)ccc2ccccc12
4. CCCCCCCCCCCCCC(=O)OCC[N+](C)(C)C
5. Cc1c(Cl)nc(-c2ccccc2)nc1C(=O)CCl
6. CN(C)C(=O)c1ccc(SC(=S)NCc2ccccc2)cc1
7. Cn1cc(NC(=O)c2cc(NC(=O)CCCCCCCCCCC(=O)Nc3cc(C(=O)Nc4cc(C(=O)NCCC(=N)N)n(C)c4)n(C)c3)cn2C)cc1C(=O)NCCC(=N)N

## Output
1. 15
2. 51
3. 98
4. 99
5. 91
6. 100
7. 98

* * *

Assay: NCI Yeast Anticancer Drug Screen. Data for the cln2 rad14 strain (AID 165);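 note: 0% = growth equal to vehicle treated cultures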
Conditions: S. cerevisiae cln2 rad14 strain, at 50.0 µM (retest, dose inferred, filed as 5.0), hits give high values
Compounds without any hit were thinned out: in the full panel of roughly 79,000, 15% have a hit.
For each record, write down the corresponding growth inhibition.
One number for each entry, in %.

Examples from the recorded data:
c1ccc(NCCSc2nc3ccccc3s2)cc1 = 43
COC(=O)c1cc(-c2ccccc2)[nH]c(=O)c1C#N = -21

Hey, can you go through the list below and give me growth inhibition for every item?
1. CN=C(N)N/N=C(\C)c1ccc2c(c1)Cc1cc(/C(C)=N/NC(N)=NC)ccc1-2
2. CC(=O)c1cc(-c2ccc(C)cc2)nc2c(C)cc(C)cc12

## Output
95
41

For each of the molecules below, note its growth inhibition.
1. Nc1nnc(-c2cc([N+](=O)[O-])cc([N+](=O)[O-])c2)o1
2. Cn1c(-c2ccc(/C=N/NC(N)=NCCCCCCN=C(N)N/N=C/c3ccc(-c4c[n+]5ccccc5n4C)cc3)cc2)c[n+]2ccccc12

## Output
20
98

Provide reported growth inhibition for each item, in the same order as listed.
1. N=C(N)c1ccc(Nc2ccc(-c3cc4ccc(C(=N)N)cc4[nH]3)cc2)cc1
2. OCc1ccc(OCc2ccccc2)c(OCc2ccccc2)c1
3. O=C1OC(CCCl)(c2ccccc2)CC1CN1CCOCC1 (stereo not drawn)
4. Oc1ccccc1/C=N/NC(=S)NC12CC3CC(CC(C3)C1)C2

## Output
1. 98
2. 26
3. 56
4. 20

Cited source: PubChem BioAssay (NCI)
